All figures here come from patent US20260151539A1.

testSystem: the molecule itself
testSummary: cell-based or functional assay
parameter: Recovery Time Crossover [s], 37 C

A selection of reference data follows.
protein	parameter	recordedResult
Q54A mutant (SEQ ID NO: 83) (designed binder) MRGSHHHHHHGSGRGDSGSGSGSGSGSGSGAPQMLRELQETNAALQDVRELLRQAVKEITFLKNTVMESDASGSGSGSGSGSVDGSPAGSPTSTEEGTSESATPESGPGTSTEPSEGSAPGSPAGSPTSTEEGTSTEPSEGSAPGTSTEPSEGSAPGTSESATPESGPGSEPATSGSETPGSEPATSGSETPGSPAGSPTSTEEGTSESATPESGPGTSTEPSEGSAPLESGSGSGSGSGSGAPQMLRELQETNAALQDVRELLRQAVKEITFLKNTVMESDASGSGSGSGSGSGSGRGDSHHHHHHKLN	Recovery Time Crossover [s], 37 C	4.39 s
T40A+Q54A mutant (SEQ ID NO: 84) (designed binder) MRGSHHHHHHGSGRGDSGSGSGSGSGSGSGAPQMLRELQEANAALQDVRELLRQAVKEITFLKNTVMESDASGSGSGSGSGSVDGSPAGSPTSTEEGTSESATPESGPGTSTEPSEGSAPGSPAGSPTSTEEGTSTEPSEGSAPGTSTEPSEGSAPGTSESATPESGPGSEPATSGSETPGSEPATSGSETPGSPAGSPTSTEEGTSESATPESGPGTSTEPSEGSAPLESGSGSGSGSGSGAPQMLRELQEANAALQDVRELLRQAVKEITFLKNTVMESDASGSGSGSGSGSGSGRGDSHHHHHHKLN	Recovery Time Crossover [s], 37 C	4.38 s
PXP (SEQ ID NO: 81) (designed binder) MRGSHHHHHHGSGRGDSVDGSGSGSGSGSGSGAPQMLRELQETNAALQDVRELLRQQVKEITFLKNTVMESDASGSGSGSGSGSGSLDGSPAGSPTSTEEGTSESATPESGPGTSTEPSEGSAPGSPAGSPTSTEEGTSTEPSEGSAPGTSTEPSEGSAPGTSESATPESGPGSEPATSGSETPGSEPATSGSETPGSPAGSPTSTEEGTSESATPESGPGTSTEPSEGSAPLDGSGSGSGSGSGSGAPQMLRELQETNAALQDVRELLRQQVKEITFLKNTVMESDASGSGSGSGSGSGSLEGRGDSHHHHHHKLN	Recovery Time Crossover [s], 37 C	7.91 s

Next protein, please.
Prompt: Report Recovery Time Crossover [s], 37 C for T40A mutant (SEQ ID NO: 82) (designed binder) MRGSHHHHHHGSGRGDSGSGSGSGSGSGSGAPQMLRELQEANAALQDVRELLRQQVKEITFLKNTVMESDASGSGSGSGSGSVDGSPAGSPTSTEEGTSESATPESGPGTSTEPSEGSAPGSPAGSPTSTEEGTSTEPSEGSAPGTSTEPSEGSAPGTSESATPESGPGSEPATSGSETPGSEPATSGSETPGSPAGSPTSTEEGTSESATPESGPGTSTEPSEGSAPLESGSGSGSGSGSGAPQMLRELQEANAALQDVRELLRQQVKEITFLKNTVMESDASGSGSGSGSGSGSGRGDSHHHHHHKLN please.
Response: 4.58 s
